System: c-Src
assay method text: phosphorylation enrichment, bacterial display (enrichment ratio); higher = better substrate or ligand; peptides without Tyr show the background;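 also: 11-residue human phosphosite peptides and single-mutation variants displayed on the E. coli surface, counted by deep sequencing, each peptide's frequency after selection divided by its frequency in the unselected input library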;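 also: frequency after pTyr selection over input frequency; kinase dosed for 20-30% of maximal phosphorylation in three min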
readout label: phosphorylation enrichment

[Q] Query phosphorylation enrichment for PLTKVYVVEGS [ZMPSTE24_Y253]
[A] 0.554

[Q] Query phosphorylation enrichment for ATATDYHTTSH [SLC4A1_Y46]
[A] 0.334

[Q] Query phosphorylation enrichment for GLSSAYGDLTS [KRT8_Y427_G429D]
[A] 0.464

[Q] Query phosphorylation enrichment for YRQLQYCPSVE [CTNND2_Y508]
[A] 0.476

[Q] Query phosphorylation enrichment for YEPDAYDDLDQ [ELP5_Y302]
[A] 0.482

[Q] Query phosphorylation enrichment for RSDEDYLYREE [POR_Y573]
[A] 0.56

[Q] Query phosphorylation enrichment for QEEPEYWDQET [HLA-A_Y83_G80E]
[A] 0.823

[Q] Query phosphorylation enrichment for HDRREYSRFEK [ITGB7_Y758_Y753H]
[A] 0.53

[Q] Query phosphorylation enrichment for FKNGDYSEVMK [LCT_Y1638_N1639S]
[A] 0.574

[Q] Query phosphorylation enrichment for LFEDRYLLGTS [ASS1_Y87_YF]
[A] 0.258

[Q] Query phosphorylation enrichment for IHKEFYDGLFP [BCR_Y561]
[A] 0.878

[Q] Query phosphorylation enrichment for MDYRSYPREYG [RBM10_Y44]
[A] 0.319

[Q] Query phosphorylation enrichment for VDTFWYKFLKP [EPM2A_Y86_R91P]
[A] 0.43

[Q] Query phosphorylation enrichment for LMVFEYMRHGD [NTRK1_Y591]
[A] 0.34

====

tested system: EPHB2 (UniProt P29323)
Sequence (P29323 whole entry, looked up): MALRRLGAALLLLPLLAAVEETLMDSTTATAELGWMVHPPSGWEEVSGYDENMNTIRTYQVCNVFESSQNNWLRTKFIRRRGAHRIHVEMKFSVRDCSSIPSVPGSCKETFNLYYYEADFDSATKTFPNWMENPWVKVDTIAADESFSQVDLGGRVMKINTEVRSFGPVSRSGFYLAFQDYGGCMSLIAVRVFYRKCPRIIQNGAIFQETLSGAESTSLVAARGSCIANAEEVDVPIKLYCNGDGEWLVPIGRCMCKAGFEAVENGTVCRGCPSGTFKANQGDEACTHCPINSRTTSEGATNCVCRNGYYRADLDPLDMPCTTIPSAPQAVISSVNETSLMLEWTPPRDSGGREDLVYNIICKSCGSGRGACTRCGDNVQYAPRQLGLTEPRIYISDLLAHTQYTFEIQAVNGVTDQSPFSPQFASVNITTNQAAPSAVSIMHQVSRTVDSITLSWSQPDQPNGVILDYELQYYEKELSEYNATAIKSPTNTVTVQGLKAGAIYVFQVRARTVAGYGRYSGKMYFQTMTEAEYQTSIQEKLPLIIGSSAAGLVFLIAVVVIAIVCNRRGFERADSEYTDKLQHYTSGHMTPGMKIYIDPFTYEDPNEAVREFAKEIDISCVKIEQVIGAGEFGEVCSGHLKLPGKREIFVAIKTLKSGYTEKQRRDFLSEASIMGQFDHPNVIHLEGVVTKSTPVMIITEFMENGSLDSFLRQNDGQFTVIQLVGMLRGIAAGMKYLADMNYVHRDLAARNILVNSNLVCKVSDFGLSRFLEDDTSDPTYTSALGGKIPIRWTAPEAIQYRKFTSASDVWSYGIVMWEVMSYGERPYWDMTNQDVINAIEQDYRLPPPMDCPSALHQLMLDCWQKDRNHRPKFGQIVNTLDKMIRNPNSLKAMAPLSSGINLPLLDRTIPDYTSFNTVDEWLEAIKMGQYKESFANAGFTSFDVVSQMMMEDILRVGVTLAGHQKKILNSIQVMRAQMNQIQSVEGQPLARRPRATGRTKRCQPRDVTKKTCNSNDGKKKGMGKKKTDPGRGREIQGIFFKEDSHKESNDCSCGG
assay method text: phosphorylation enrichment, bacterial display (enrichment ratio); higher = better substrate or ligand; peptides without Tyr show the background
Please mark yes (1) if the recorded phosphorylation enrichment is equal to or greater than 0.8, and no (0) if it falls below.

[Q] Identify whether the reported phosphorylation enrichment of the following sequence is 0.8 or greater: CEHFSYYGMKA [SLC15A2_Y60_R57H]
[A] no (0)

[Q] Identify whether the reported phosphorylation enrichment of the following sequence is 0.8 or greater: IGEGTYGVVYK [CDK2_Y15]
[A] yes (1)

[Q] Identify whether the reported phosphorylation enrichment of the following sequence is 0.8 or greater: YETVKYFNNER [ABCB7_Y345]
[A] no (0)

[Q] Identify whether the reported phosphorylation enrichment of the following sequence is 0.8 or greater: RLPNGYGLAFR [DLK1_Y262_S260N_YF]
[A] no (0)

[Q] Identify whether the reported phosphorylation enrichment of the following sequence is 0.8 or greater: HLNLTYRILSF [MMP23B_Y95_F91L]
[A] no (0)

[Q] Identify whether the reported phosphorylation enrichment of the following sequence is 0.8 or greater: TINPIYEHVGY [CHN1_Y143]
[A] yes (1)

[Q] Identify whether the reported phosphorylation enrichment of the following sequence is 0.8 or greater: AIDDKYSRREE [SART1_Y685]
[A] no (0)

[Q] Identify whether the reported phosphorylation enrichment of the following sequence is 0.8 or greater: CGPLLYGLVHQ [PRKCG_Y122_S119P]
[A] yes (1)

[Q] Identify whether the reported phosphorylation enrichment of the following sequence is 0.8 or greater: TDECEYDELIV [TGM1_Y136_Y134C]
[A] yes (1)

[Q] Identify whether the reported phosphorylation enrichment of the following sequence is 0.8 or greater: TDKLFYIFTSG [SLC27A4_Y243_YF]
[A] no (0)

[Q] Identify whether the reported phosphorylation enrichment of the following sequence is 0.8 or greater: ADKSVYLMGLN [MYH7_Y386_A385V]
[A] no (0)

[Q] Identify whether the reported phosphorylation enrichment of the following sequence is 0.8 or greater: ATARPYSPYII [LRP5_Y1528_R1529S]
[A] no (0)

[Q] Identify whether the reported phosphorylation enrichment of the following sequence is 0.8 or greater: SMEGLYSSTQD [CLIC5_Y111]
[A] yes (1)

====

tested system: EPHB2 (UniProt P29323)
assay method text: phosphorylation enrichment, bacterial display (enrichment ratio); higher = better substrate or ligand; peptides without Tyr show the background
Please mark Criterion met if the recorded phosphorylation enrichment is equal to or greater than 0.5, and Criterion not met if it falls below.

[Q] Identify whether the reported phosphorylation enrichment of the following sequence is 0.5 or greater: PKGIGYGQGAG [CSRP3_Y73]
[A] Criterion not met

[Q] Identify whether the reported phosphorylation enrichment of the following sequence is 0.5 or greater: IVKAYYVRARA [AIPL1_Y268]
[A] Criterion not met

[Q] Identify whether the reported phosphorylation enrichment of the following sequence is 0.5 or greater: SMAKYYASEIA [ACADSB_Y373]
[A] Criterion not met

[Q] Identify whether the reported phosphorylation enrichment of the following sequence is 0.5 or greater: STSKTYVISRT [RBBP6_Y87]
[A] Criterion not met

[Q] Identify whether the reported phosphorylation enrichment of the following sequence is 0.5 or greater: VNQSGYTLIRK [ATP6V0A2_Y688_R685Q]
[A] Criterion not met

[Q] Identify whether the reported phosphorylation enrichment of the following sequence is 0.5 or greater: FDAHIYEGCVI [PRKCD_Y64_R67C]
[A] Criterion met

[Q] Identify whether the reported phosphorylation enrichment of the following sequence is 0.5 or greater: RGKDSYETSKL [SPP1_Y225_Q229K]
[A] Criterion met

====

Tested on: c-Abl (mouse)
assay method text: phosphorylation enrichment, bacterial display (enrichment ratio); higher = better substrate or ligand; peptides without Tyr show the background
readout label: phosphorylation enrichment
Please state the value as a number alone, without comment.

[Q] Query phosphorylation enrichment for GSSSSCGQHGS [HRNR_Y517_Y517C]
[A] 0.411

[Q] Query phosphorylation enrichment for SDGKRYRVPSD [HHIPL2_Y395_H391D]
[A] 0.44

[Q] Query phosphorylation enrichment for RHFVFYFSFLL [PTEN_Y177_R173H_YF]
[A] 0.703

[Q] Query phosphorylation enrichment for SSVAGYACLAY [MVD_Y131_A128V]
[A] 0.768

[Q] Query phosphorylation enrichment for SSPQPYLVPFL [TAF4_Y652]
[A] 1.09

[Q] Query phosphorylation enrichment for RRIHCYRGHLW [VHL_Y112_S111C]
[A] 0.527

[Q] Query phosphorylation enrichment for AASHRYDLGGL [QPRT_Y162]
[A] 0.432

[Q] Query phosphorylation enrichment for YEPDAYDDLDQ [ELP5_Y302]
[A] 0.769

[Q] Query phosphorylation enrichment for CGQDPYIRELG [UROS_Y19]
[A] 0.877

[Q] Query phosphorylation enrichment for MSRDIYSTDFF [NTRK1_Y676_YF]
[A] 0.631

[Q] Query phosphorylation enrichment for LPEENYQVLRF [ARHGAP1_Y365]
[A] 1.18

[Q] Query phosphorylation enrichment for GRPLSYWLTGC [LYZL6_Y140_F139S]
[A] 0.846

[Q] Query phosphorylation enrichment for SHSMKYFDTAV [HLA-C_Y31_R30K]
[A] 0.469

[Q] Query phosphorylation enrichment for SISLRYEGRVY [ABL1_Y167]
[A] 0.803

====

tested system: EPHB1 (UniProt P54762)
Sequence (P54762 whole entry, looked up): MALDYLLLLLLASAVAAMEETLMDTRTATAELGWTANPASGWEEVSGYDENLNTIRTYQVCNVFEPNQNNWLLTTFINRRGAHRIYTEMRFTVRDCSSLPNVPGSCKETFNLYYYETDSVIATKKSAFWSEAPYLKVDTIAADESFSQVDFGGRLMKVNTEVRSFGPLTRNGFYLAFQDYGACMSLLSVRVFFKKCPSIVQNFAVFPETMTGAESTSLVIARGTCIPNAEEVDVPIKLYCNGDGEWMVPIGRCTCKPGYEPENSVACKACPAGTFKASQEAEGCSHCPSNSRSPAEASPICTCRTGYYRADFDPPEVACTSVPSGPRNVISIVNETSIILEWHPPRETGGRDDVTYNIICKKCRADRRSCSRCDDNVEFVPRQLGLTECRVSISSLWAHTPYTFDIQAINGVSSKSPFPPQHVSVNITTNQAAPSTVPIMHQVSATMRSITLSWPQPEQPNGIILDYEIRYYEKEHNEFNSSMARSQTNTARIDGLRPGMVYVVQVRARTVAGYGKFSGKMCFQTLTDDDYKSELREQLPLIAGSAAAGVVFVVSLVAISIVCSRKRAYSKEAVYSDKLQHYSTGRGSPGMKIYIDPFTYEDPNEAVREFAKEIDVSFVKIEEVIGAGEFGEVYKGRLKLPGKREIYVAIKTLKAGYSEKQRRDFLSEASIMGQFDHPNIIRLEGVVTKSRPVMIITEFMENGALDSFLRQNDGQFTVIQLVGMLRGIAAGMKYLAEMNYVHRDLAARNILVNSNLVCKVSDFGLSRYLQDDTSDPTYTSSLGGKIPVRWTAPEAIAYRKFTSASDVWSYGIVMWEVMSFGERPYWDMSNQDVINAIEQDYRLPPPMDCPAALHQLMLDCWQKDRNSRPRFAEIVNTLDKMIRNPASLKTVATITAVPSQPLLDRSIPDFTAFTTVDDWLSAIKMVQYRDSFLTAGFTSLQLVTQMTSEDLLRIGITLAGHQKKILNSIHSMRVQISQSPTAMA
assay method text: phosphorylation enrichment, bacterial display (enrichment ratio); higher = better substrate or ligand; peptides without Tyr show the background
readout label: phosphorylation enrichment
Please state the value as a number alone, without comment.

[Q] Query phosphorylation enrichment for ARGTRYRYVSQ [UCN3_Y95]
[A] 0.39

[Q] Query phosphorylation enrichment for VPANRYDLLRL [FARSB_Y72_C76R]
[A] 0.424

[Q] Query phosphorylation enrichment for ESDYTYSSSYE [SRPK2_Y427]
[A] 1.3

[Q] Query phosphorylation enrichment for GVFSRHFTTFD [CLCA1_Y661_Y661H_YF]
[A] 0.953

[Q] Query phosphorylation enrichment for GGGGGYNCSSG [FUS_Y232_R234C]
[A] 0.402

[Q] Query phosphorylation enrichment for MCDKEYYSVHN [MET_Y1234_Y1230C]
[A] 0.625

[Q] Query phosphorylation enrichment for FDGKDYIALKE [HLA-A_Y147_N151K_YF]
[A] 0.407

[Q] Query phosphorylation enrichment for RLLRGHDQYAY [HLA-B_Y137]
[A] 0.673

[Q] Query phosphorylation enrichment for TKAEKYVNKAK [PLCG1_Y991]
[A] 0.264

[Q] Query phosphorylation enrichment for LLILEYAKYGS [RET_Y806_V804L]
[A] 0.773

[Q] Query phosphorylation enrichment for PNRILYGDFWQ [MYH6_Y717_R721W]
[A] 0.689

[Q] Query phosphorylation enrichment for ANAFIYVVQLP [L1CAM_Y420_YF]
[A] 0.701

[Q] Query phosphorylation enrichment for TPGPNYRPGYN [USH2A_Y463]
[A] 0.39

[Q] Query phosphorylation enrichment for GKSFIYAAFHA [KCNT1_Y563_T562I]
[A] 0.787
